- Tested on: ACHN renal
- PROTOCOL_NOTES: NCI tumour cell line growth inhibition, 48 h; in the data active means GI50 below about 0.43 µM; inactive means the rest
Classes used: T for active, F for inactive

compound="COc1ccc(NC(=O)c2sc3nc(C)c(C(O)c4ccccc4)cc3c2N)cc1 (stereo unspecified)" class_label=F
compound="CCC(C)C(NC(=O)C1CCCN1C(=O)C(NC(=O)C(C)N)C(C)C)C(N)=O (stereo unspecified)" class_label=F
compound=CCOC(=O)c1c(C(F)(F)F)n([O-])c2ccc(OC)cc2[n+]1=O class_label=F
compound=C=C1C(=O)O[C@H]2[C@H]1CC/C(COC(=O)NCc1c[nH]c3ccc(Cl)cc13)=C\CC[C@@]1(C)O[C@@H]21 class_label=F
compound=CCCc1nc2c(C)cc(-c3nc4ccccc4n3C)cc2n1Cc1ccc(-c2ccccc2C(=O)O)cc1 class_label=F
compound=N#Cc1ccnc(N2C(=O)CC[C@H]2C(=O)N(c2cncc(F)c2)[C@H](C(=O)NC2CC(F)(F)C2)c2ccccc2Cl)c1 class_label=F
compound=COc1ccc([N+](=O)[O-])c(S(=O)(=O)c2ccc(Cl)cc2)n1 class_label=F
compound="COC(=O)C1=C(C(=O)OC)C23C=C(C)C1C2=C(C)C1(CC1)[C@@](C)(O)C3=O (stereo partly specified)" class_label=T
compound=CSc1nc2sc3cc(Cl)ccc3n2c(=N)c1C#N class_label=F
compound=Cn1cc(C2=C(c3cn(CCN)c4ccccc34)C(=O)NC2=O)c2ccccc21 class_label=F
compound=COC1=CC(c2ccc[nH]2)=N/C1=C\c1ccc[nH]1 class_label=T
